- measurement_target: PSMA expressing cell line LNCaP (Homo sapiens, UniProt Q04609)
- Sequence (Q04609 whole entry): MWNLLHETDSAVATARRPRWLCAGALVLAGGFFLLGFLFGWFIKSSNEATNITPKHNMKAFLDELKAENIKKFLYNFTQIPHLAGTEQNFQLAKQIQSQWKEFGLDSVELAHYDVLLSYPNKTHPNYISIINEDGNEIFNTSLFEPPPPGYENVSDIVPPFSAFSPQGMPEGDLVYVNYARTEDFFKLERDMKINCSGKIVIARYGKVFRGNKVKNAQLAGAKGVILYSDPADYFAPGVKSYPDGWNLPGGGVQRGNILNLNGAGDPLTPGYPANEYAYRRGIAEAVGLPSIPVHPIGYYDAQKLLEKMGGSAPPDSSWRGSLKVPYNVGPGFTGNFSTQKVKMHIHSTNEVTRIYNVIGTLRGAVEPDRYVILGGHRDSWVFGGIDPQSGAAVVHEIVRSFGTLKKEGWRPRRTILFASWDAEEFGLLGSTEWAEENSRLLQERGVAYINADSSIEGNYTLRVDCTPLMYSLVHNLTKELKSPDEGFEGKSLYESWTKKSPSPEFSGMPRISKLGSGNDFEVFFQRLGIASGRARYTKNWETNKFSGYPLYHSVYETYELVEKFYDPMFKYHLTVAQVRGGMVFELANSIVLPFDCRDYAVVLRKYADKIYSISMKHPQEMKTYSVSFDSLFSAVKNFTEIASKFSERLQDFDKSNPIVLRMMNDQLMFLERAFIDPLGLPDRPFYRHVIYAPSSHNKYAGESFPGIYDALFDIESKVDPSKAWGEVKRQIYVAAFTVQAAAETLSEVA
Consider the cut-off 10 nM. If the recorded IC50 is strictly smaller, the label is T; if not, the label is F.

For orientation, consider the following solved cases.
>>> label_class("O=C(O)CCC(NC(=O)NC(CCCCNC(=O)C(Cc1ccc2ccccc2c1)NC(=O)c1ccc(CNC(=O)CN2CCN(CC(=O)O)CCN(CC(=O)O)CCN(CC(=O)O)CC2)cc1)C(=O)O)C(=O)O (stereo not shown) [MB24]")
"T"
>>> label_class("O=C(O)CCC(NC(=O)NC(CCCCNC(=O)c1ccc(CNC(=O)CN2CCN(CC(=O)O)CCN(CC(=O)O)CCN(CC(=O)O)CC2)cc1)C(=O)O)C(=O)O (stereo not shown) [MB2]")
"T"
>>> label_class("O=C(O)CC[C@H](NC(=O)N[C@@H](CCCCNC(=O)[C@@H](Cc1ccc2ccccc2c1)NC(=O)[C@H]1CC[C@H](CNC(=O)CN2CCN(CC(=O)O)CCN(CC(=O)O)CCN(CC(=O)O)CC2)CC1)C(=O)O)C(=O)O [MB17.D]")
"F"
>>> label_class("O=C(O)CCC(NC(=O)NC(CCCCNC(=O)c1ccc(CNC(=O)c2ccc(CNC(=O)c3ccc(CNC(=O)c4ccc(CNC(=O)CN5CCN(CC(=O)O)CCN(CC(=O)O)CCN(CC(=O)O)CC5)cc4)cc3)cc2)cc1)C(=O)O)C(=O)O (stereo not shown) [MB10]")
"T"
>>> label_class("O=C(O)CCC(NC(=O)NC(CCCCNC(=O)C(Cc1ccc2ccccc2c1)NC(=O)CCCCCNC(=O)CN1CCN(CC(=O)O)CCN(CC(=O)O)CCN(CC(=O)O)CC1)C(=O)O)C(=O)O (stereo not shown) [MB25]")
"T"

Threshold test, IC50 < 10 nM: O=C(O)CC[C@H](NC(=O)N[C@@H](CCCCNC(=O)C1CCC(CNC(=O)c2ccc(CNC(=O)CN3CCN(CC(=O)O)CCN(CC(=O)O)CCN(CC(=O)O)CC3)cc2)CC1)C(=O)O)C(=O)O (stereo partly shown) [MB33]
F

Threshold test, IC50 < 10 nM: O=C(O)CCC(NC(=O)NC(CCCCNC(=O)C1CCC(CNC(=O)CN2CCN(CC(=O)O)CCN(CC(=O)O)CCN(CC(=O)O)CC2)CC1)C(=O)O)C(=O)O (stereo not shown) [MB22]
F
